FYI, the data here is from patent US20260049077A1.

assay: Metabolic stability in human liver microsomes (HLM)
measurement-name: half-life (h)

1) O=C(O)c1cnn2ccc(CN(C(=O)Nc3ccc(OC(F)(F)F)cc3)C3CCC3)cc12 ... 7.37
2) CC(C)(CO)n1cc(C(=O)c2cncc(NC(=O)Cc3ccc(Cl)cn3)c2)c2cnc(N)nc21 [PF-06273340, reference compound] ... 8.37
3) NC(=O)c1cnn2ccc(CN(C(=O)Nc3ccc(OC(F)(F)F)cc3)C3CC3)cc12 ... 6.35
4) CC(C)N(Cc1ccn2ncc(C(=N)NO)c2c1)C(=O)Nc1ccc(OC(F)(F)F)cc1 ... 6.47
5) CC(C)N(Cc1ccn2ncc(C(N)=O)c2c1)C(=O)CNc1ccc(OC(F)(F)F)cc1 ... 3.22
6) O=C(Nc1ccccc1C(F)(F)F)N(Cc1ccn2nccc2c1)C1CCC1 ... 0.192
7) CC(C)N(Cc1ccn2ncc(C(N)=O)c2c1)C(=O)COc1ccc(OC(F)(F)F)cc1 ... 10
8) CN(Cc1ccn2ncc(C(N)=O)c2c1)C(=S)Nc1ccc(OC(F)(F)F)cc1 ... 6.37
9) CC(C)c1ccc(OCC(=O)N(Cc2ccn3ncc(C(N)=O)c3c2)C(C)C)cc1 ... 0.472
10) O=C(Nc1cccc(C(F)(F)F)c1)N(Cc1ccn2nccc2c1)C1CCC1 ... 0.258

---

experiment: Endometriosis mouse model, liver and kidney toxicity (organ weight, ALT, AST); format: in vivo; parameters: unit not given here; settings: i.p. dose of 10 mg/kg/day for 14 days
Recorded ALT (Mean ± SD) values for a group of compounds are listed next.
measurement-name: ALT (Mean ± SD)

1) CN(Cc1ccn2ncc(C(N)=O)c2c1)C(=O)Nc1ccc(OC(F)(F)F)cc1 ... 16.6 ± 2.6
2) CC(C)(CO)n1cc(C(=O)c2cncc(NC(=O)Cc3ccc(Cl)cn3)c2)c2cnc(N)nc21 [PF-06273340, reference compound] ... 15.1 ± 1.6
3) CC(C)N(Cc1ccn2ncc(C(N)=O)c2c1)C(=S)Nc1ccc(OC(F)(F)F)cc1 ... 21.3 ± 4.9
4) CN(Cc1ccn2ncc(C(N)=O)c2c1)C(=O)COc1ccc(OC(F)(F)F)cc1 ... 20.5 ± 12.6

---

test: Metabolic stability in mouse liver microsomes (MLM)
measurement-name: half-life

1. CN(Cc1ccn2ncc(C(N)=O)c2c1)C(=O)COc1ccc(OC(F)(F)F)cc1 [CDD-3132] ... 11.8 h
2. CC(C)N(Cc1ccn2ncc(C(N)=O)c2c1)C(=O)Nc1ccc(OC(F)(F)F)cc1 [CDD-2737] ... 2.6 h
3. CC(C)N(Cc1ccn2ncc(C(N)=O)c2c1)C(=S)Nc1ccc(OC(F)(F)F)cc1 [CDD-3119] ... 4.83 h
4. NC(=O)c1cnn2ccc(CN(C(=O)Nc3ccc(OC(F)(F)F)cc3)C3CC3)cc12 [CDD-2738] ... 3.73 h

---

experiment: Metabolic stability in mouse liver microsomes (MLM)
measurement-name: microsomal CLint (µL/min/mg)

1. CN(Cc1ccn2ncc(C(N)=O)c2c1)C(=O)Nc1ccc(OC(F)(F)F)cc1 [CDD-3031] ... 1.8

---

target: NTRKs; experiment: ThermoFisher Z'-LYTE kinase assay, NTRKs; conditions: Z'-LYTE dose response; range over NTRKs
pIC50: −log10 of the molar value.
measurement-name: pIC50

1. CC(C)N(Cc1ccn2ncc(C(=O)O)c2c1)C(=O)Nc1ccc(OC(F)(F)F)cc1 ... 8.42 to 8.92
